Assayed target: Mitogen-activated protein kinase 8 (Homo sapiens)
Sequence (P45983 whole entry): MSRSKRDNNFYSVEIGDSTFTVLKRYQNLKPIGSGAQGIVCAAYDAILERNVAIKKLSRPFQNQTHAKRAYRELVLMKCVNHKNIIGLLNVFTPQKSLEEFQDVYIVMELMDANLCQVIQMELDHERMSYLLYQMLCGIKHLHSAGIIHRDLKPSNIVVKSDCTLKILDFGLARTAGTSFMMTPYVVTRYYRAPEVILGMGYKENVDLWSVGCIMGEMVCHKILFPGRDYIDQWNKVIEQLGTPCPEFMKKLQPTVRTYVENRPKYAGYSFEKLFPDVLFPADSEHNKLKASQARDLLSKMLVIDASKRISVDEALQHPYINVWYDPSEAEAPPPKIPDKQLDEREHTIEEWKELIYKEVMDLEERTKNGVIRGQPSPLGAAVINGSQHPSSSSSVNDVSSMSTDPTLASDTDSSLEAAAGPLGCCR
Method description: Inhibition of recombinant JNK1 after 60 mins by TR-FRET assay
Result type: IC50

Problem: Which measured IC50 value corresponds to O=c1[nH]nc(-c2ccnc(Nc3nccs3)c2)n1-c1ccc2ccccc2c1 ?
Solution: > 50 µM

Problem: Which measured IC50 value corresponds to C[C@H](Nc1cc(-c2n[nH]c(=O)n2-c2ccc3ccccc3c2)ccn1)c1ccccc1 ?
Solution: > 5 µM

Problem: Which measured IC50 value corresponds to O=C(Nc1cc(-c2n[nH]c(=O)n2-c2ccc3ccccc3c2)ccn1)c1ccccc1 ?
Solution: > 50 µM

Problem: Which measured IC50 value corresponds to O=c1[nH]nc(-c2ccnc(NC3CCCOC3)c2)n1-c1ccc2ccccc2c1 (stereo not drawn) ?
Solution: 0.74 µM

Problem: Which measured IC50 value corresponds to CCN1CCC(n2nc(-c3ccnc(NC4CCOCC4)c3)n(-c3ccc4ccccc4c3)c2=O)CC1 ?
Solution: > 5 µM

Problem: Which measured IC50 value corresponds to O=c1[nH]nc(-c2ccnc(NC3CCOCC3)c2)n1-c1ccc2cc(F)ccc2c1 ?
Solution: 0.74 µM

Problem: Which measured IC50 value corresponds to O=c1[nH]nc(-c2ccncc2)n1-c1ccc2ccccc2c1 ?
Solution: > 50 µM

Problem: Which measured IC50 value corresponds to O=c1[nH]nc(-c2ccnc(NC3CCCC3)c2)n1-c1ccc2ccccc2c1 ?
Solution: > 50 µM
